Origin of values: PubChem BioAssay (NCI)

Test system: DMS 114 small cell lung
assayInfo: NCI tumour cell line growth inhibition, 48 h
If the reported TGI equals or exceeds 30 µM, assign criterion met. If not, assign criterion not met.

Worked cases, answers included:
Incoming: Check the entry CN1C=C(C(N)=O)C2CC(O)[C@@](NC(=O)CS(N)(=O)=O)(C(=O)O)C2C1 (some centres undefined) : does TGI equal or exceed 30 µM?
Outgoing: criterion not met

Incoming: Check the entry `C=C1c2ccccc2N(S(=O)(=O)c2ccc(C)cc2)C12CCCCC2` : does TGI equal or exceed 30 µM?
Outgoing: criterion met

Incoming: Check the entry `CCOC(=O)c1cc(C(=O)O)c(=O)n2c1[nH]c1ccccc12` : does TGI equal or exceed 30 µM?
Outgoing: criterion met

Incoming: Check the entry `CC(=O)[O-].O=[N+]([O-])c1ccc([O-])c(C=NCCN=Cc2cc([N+](=O)[O-])ccc2[O-])c1.[Mn+3]` : does TGI equal or exceed 30 µM?
Outgoing: criterion met

New cases:
Incoming: Check the entry `Cc1ccc(N2C(=O)/C(=C3\Sc4c(nc(C)n(C)c4=O)N3c3ccccc3)SC2=S)cc1` : does TGI equal or exceed 30 µM?
Outgoing: criterion met

Incoming: Check the entry `OCCN(CCO)c1ncnc2c1sc(=S)n2-c1ccccc1` : does TGI equal or exceed 30 µM?
Outgoing: criterion met

Incoming: Check the entry `O=C(CCl)Nc1ccc(C(=O)N/N=C/c2ccc(Cl)cc2)cc1` : does TGI equal or exceed 30 µM?
Outgoing: criterion not met

Incoming: Check the entry `CC12O[Te]34OC1(C)C(C)(O3)C2(C)O4` : does TGI equal or exceed 30 µM?
Outgoing: criterion not met

* * *

Test system: TK-10 renal
assayInfo: NCI tumour cell line growth inhibition, 48 h
# key: entry, value: GI50

Incoming: What does the data say about its GI50? Entry: `Cc1cc2c(-c3nc4ccccn4c3NC34CC5CC(CC(C5)C3)C4)c(O)c(O)cc2c(O)c1-c1c(C)cc2c(-c3nc4ccccn4c3NC34CC5CC(CC(C5)C3)C4)c(O)c(O)cc2c1O`
Outgoing: 0.794 µM

Incoming: What does the data say about its GI50? Entry: CC(=O)OC1Oc2cc(C)c(C)cc2-c2oc(=O)c(-c3ccccc3)cc21 (stereo not drawn)
Outgoing: 1.14 µM

Incoming: What does the data say about its GI50? Entry: `Cc1cc(Nc2cc(N3CCN(C)CC3)nc(C#Cc3ccccc3)n2)n[nH]1`
Outgoing: 0.897 µM

New cases:
Incoming: What does the data say about its GI50? Entry: `CCOc1cccc(/C=N/NC(=O)Cc2ccc(Nc3ccnc(C(F)(F)F)c3)cc2)c1O`
Outgoing: 4.01 µM

* * *

Tested on: ACHN renal
assayInfo: NCI tumour cell line growth inhibition, 48 h
# key: entry, value: TGI

Incoming: What does the data say about its TGI? Entry: `COC(=O)Cc1cc(=O)oc2c1C(=O)CCC2`
Outgoing: > 100 µM

Incoming: What does the data say about its TGI? Entry: COc1ccc2c(c1)CCC(CN1CCN(CCOC(c3ccccc3)c3ccccc3)CC1)C2O (configuration not stated)
Outgoing: 25.6 µM

Incoming: What does the data say about its TGI? Entry: `N#Cc1c(-c2ccc(Cl)cc2)csc1NC(=O)Nc1cccc(C(F)(F)F)c1`
Outgoing: 6.51 µM

Incoming: What does the data say about its TGI? Entry: `CC(=O)Nc1ccc2c(c1)nc1c3ccccc3ccn21`
Outgoing: > 100 µM

Incoming: What does the data say about its TGI? Entry: CCOP(=O)(CC1OC(CO)C(O)C1O)OCC (configuration not stated)
Outgoing: > 100 µM

Incoming: What does the data say about its TGI? Entry: O=C1[C@H]2ON(c3ccccc3)C(c3cccc([N+](=O)[O-])c3)[C@H]2C(=O)N1c1ccc(Cc2ccc(N3C(=O)[C@@H]4ON(c5ccccc5)C(c5cccc([N+](=O)[O-])c5)[C@@H]4C3=O)cc2)cc1 (some centres not stated)
Outgoing: > 100 µM

New cases:
Incoming: What does the data say about its TGI? Entry: `O=C1CCCC2=C1CC1=C(CCCC1=O)N2c1ccc(-c2ccccc2)cc1`
Outgoing: > 100 µM

Incoming: What does the data say about its TGI? Entry: CSc1ncnc2c1cnn2Cc1cn(COCC(O)CO)nn1 (configuration not stated)
Outgoing: > 100 µM

Incoming: What does the data say about its TGI? Entry: `Cc1cccc2c(N)c3cccc(C(=O)NCC[N+](C)(C)[O-])c3nc12`
Outgoing: 77.9 µM

Incoming: What does the data say about its TGI? Entry: CN1C=C(C(N)=O)C2CC(O)[C@@](NC(=O)CS(N)(=O)=O)(C(=O)O)C2C1 (some centres not stated)
Outgoing: 97.3 µM

Incoming: What does the data say about its TGI? Entry: `COc1ccc2c(c1)c(-c1cc(-c3cn(C)c4ccc(OC)cc34)[nH]n1)cn2C`
Outgoing: > 100 µM
